# methodSummary: Human HepG2 cell viability assay in 384 well format
# Format: toxicity, cell-based
# Set-up: dose 125 nL, time 70.5 hour; concentration not given beside the values
# testSettings: HepG2 cells, read-out: Inhibition
measureName: cytotoxicity at 70.5 h (%)
Your answer is read as %, so omit the unit and give the number.

Consider CCC(C)(N)c1nc(=O)c(C)c(C)[nH]1 (stereo unspecified) . Its measured cytotoxicity at 70.5 h is -7.88

Value of measured cytotoxicity at 70.5 h for the entry COCCN1CCC(NC(=O)NCC2(c3cccc(F)c3)CC2)C1 (stereo unspecified) : -8.45

Cc1nc(NCC23CCCN2CCC3)cc(C2CCCNC2)n1 (stereo unspecified) yielded cytotoxicity at 70.5 h of -4.8

Per the record, "CCCc1cc(C(=O)N2C[C@H](O)[C@@H](N3CCCC3)C2)ccn1" has cytotoxicity at 70.5 h of 16.4

response.value for O=C(NCc1ccc(-c2ccn[nH]2)cc1)N1CCC(N2CCCC2)C1 (stereo unspecified) (field: cytotoxicity at 70.5 h) = -5.88

Consider "CC(C)=CCN1CCC2(CC1)c1ccccc1[C@@H](N1CCSCC1)[C@@H]2O" . Its measured cytotoxicity at 70.5 h is -4.97

* * *

# methodSummary: Human HepG2 cell viability assay in 384 well format
# Assay type: toxicity, cell-based
# Design: dose 125 nL, time 70.5 hour; concentration not given beside the values
# testSettings: HepG2 cells, read-out: Inhibition
measureName: cytotoxicity at 70.5 h (%)
Give the value in % but do not write % after it.

In plain terms, CNc1cnc(CC2COCCN(Cc3ccccc3)C2)cn1 (stereo unspecified) has a documented cytotoxicity at 70.5 h of -2.53

Query "O=C(NCCNC1CCN(c2nccs2)CC1)c1cccs1" yields cytotoxicity at 70.5 h of -9.14

Recorded result, "O=C(CC1CC1)N[C@@H]1CN(Cc2cccnc2)C[C@@H]2CCCO[C@@H]21" , cytotoxicity at 70.5 h: -4.07

Please fill in: cytotoxicity at 70.5 h reported for "O=c1[nH]nc2nc(N3CCCC3)ccn12" = 5.61

Measured cytotoxicity at 70.5 h of "O=C(Nc1ccc2c(ccn2CCN2CCOCC2)c1)c1ccccn1" : -3.62

Lab book: cytotoxicity at 70.5 h of "COCCN1CCC2(CC1)CN(C(=O)C1CC1)c1ccc(F)cc12" noted as -3.73

* * *

Hi there, I'd appreciate the recorded cytotoxicity at 70.5 h for every entry that follows.
# methodSummary: Human HepG2 cell viability assay in 384 well format
# Format: toxicity, cell-based
# Design: dose 125 nL, time 70.5 hour; concentration not given beside the values
# testSettings: HepG2 cells, read-out: Inhibition
Respond numerically; units are % and should not be typed.

"CCCn1cc(C(=O)NCCCC(N)=O)c2ccccc21" has a reported cytotoxicity at 70.5 h of -2.51

The reported cytotoxicity at 70.5 h of the molecule "O=C(C1CCCC1)N1CCC(Nc2ccncn2)CC1" was -3.92

Lab book: cytotoxicity at 70.5 h of "CCN(C)[C@H]1CN(C(=O)c2cccc(N3CCS(=O)(=O)CC3)c2)C[C@@H]1O" noted as -7.37

// sample O=C(COCc1ccccc1)N1CCCC(OCc2cccnc2)C1 (stereo not given) , its cytotoxicity at 70.5 h was 15.5

Sample "O=C(c1nc(Cc2c[nH]c3ccccc23)no1)N1CCOCC1" ; cytotoxicity at 70.5 h observed: -3.8

Form field cytotoxicity at 70.5 h, entry "CC(C)(CC(=O)N(CC(N)=O)C1CCCC1)c1ccccc1" : -9.09

cytotoxicity at 70.5 h reported for this molecule "Cc1nc(CN2CCC23CCN(C(=O)c2ccco2)CC3)cs1" : -1.36

The molecule listed as CC(C)n1cnnc1CN(C)CC1CCCNC1 (stereo not given) has a reported cytotoxicity at 70.5 h of -5.56

Sure, the documented cytotoxicity at 70.5 h for CC(C)N(C)S(=O)(=O)N(Cc1cccs1)CC1CCCO1 (stereo not given) is 37.4

In plain terms, "Cn1nnc2cc(C(=O)NS(=O)(=O)c3cccc(C#N)c3)ccc21" has a documented cytotoxicity at 70.5 h of -5.98

Lab note: measured cytotoxicity at 70.5 h of O=C(NCC1CCOC1)c1csc(-c2cccc(Cl)c2)n1 (stereo not given) was 1.75

The recorded cytotoxicity at 70.5 h for "COc1ccc(-c2nc(CN3CCc4cncnc4C3)no2)cc1" is -3.32

Measured cytotoxicity at 70.5 h, "Cc1ccoc1-c1nnc(CNCCn2cccn2)o1" : 31.8

Value of measured cytotoxicity at 70.5 h for the entry "CCCn1nc(-c2nc(Cc3ccc(OC)cc3)no2)ccc1=O" : -8.43

Item: CSCCC(=O)N1CCN(CC(C)O)CC1 (stereo not given) | cytotoxicity at 70.5 h: -2.96

response.value for CCNC(=O)N1CCCCC1CCO (stereo not given) (field: cytotoxicity at 70.5 h) = 12.6

Lab note: "CC(C)(C)c1nnc(CN2CCN(C(=O)N3CCCCC3)CC2)o1" gave cytotoxicity at 70.5 h of -3.76

Item: "Cc1cccc(CO[C@@H]2C[C@H]3CN(c4ncccn4)CCN3C2)n1" | cytotoxicity at 70.5 h: -1.58

Fc1cccc(C2(CNC3CCSC3)CCOCC2)c1 (stereo not given) yielded cytotoxicity at 70.5 h of 13.3

The reported value for "CCc1nnc2ccc(N3CCN(S(=O)(=O)c4ccc(Cl)s4)CC3)nn12" in terms of cytotoxicity at 70.5 h is -19

// cytotoxicity at 70.5 h lookup, molecule = CC(O)CN1CCN(C(=O)c2cnn(-c3ccccc3Cl)c2)CC1 (stereo not given) , result: -2.98

// recorded cytotoxicity at 70.5 h for O=C1N(c2ccsc2)CCC12CCCN(Cc1cccnc1)C2 (stereo not given) : -7.79

Item: "N#Cc1ccc(N2CCN(c3nccs3)CC2)nc1" | cytotoxicity at 70.5 h: -0.838

The reported value for "CCNc1ncc(C(=O)NC2CCOCC2)cn1" in terms of cytotoxicity at 70.5 h is -5.98

Value of cytotoxicity at 70.5 h reported for the molecule OC(CN1CCN(Cc2cc(F)cc(F)c2)CC1)C1CC1 (stereo not given) is 28.5

* * *

# methodSummary: Human HepG2 cell viability assay in 384 well format
# Type: toxicity, cell-based
# Parameters: dose 125 nL, time 70.5 hour; concentration not given beside the values
# testSettings: HepG2 cells, read-out: Inhibition
Exercise: for every item that follows, state its recorded cytotoxicity at 70.5 h.
Answer with a number only, understood to be in %.

Entry under test: Cc1nnc2n1CC(CNc1ncnc3ccccc13)CC2 (stereo unspecified) . Its cytotoxicity at 70.5 h was -11.6

// recorded cytotoxicity at 70.5 h for "C[C@]12CCCCN(C(=O)c3ccccn3)[C@H]1CCCC(=O)N2" : 5.15

The compound listed as CN(Cc1ccncc1)C1COC2(CCN(Cc3cccs3)CC2)C1 (stereo unspecified) has a reported cytotoxicity at 70.5 h of -12.7

cytotoxicity at 70.5 h measured on CN(C)C(=O)NC1COC2(CCN(S(=O)(=O)c3ccccc3)CC2)C1 (stereo unspecified) = -10.3

Entry CC(C(=O)N1CCCN(Cc2ccc(C#N)cc2)CC1)n1ccnc1 (stereo unspecified) , cytotoxicity at 70.5 h reported as 0.793

Noted for COCCN(Cc1ccncc1)C(=O)C1COc2c(cccc2OC)C1 (stereo unspecified) : its cytotoxicity at 70.5 h reads 0.81

compound "CCCNC(=O)c1cccc2ncccc12" , cytotoxicity at 70.5 h observed: -4.07

The value of cytotoxicity at 70.5 h measured for the compound c1ccc2c(c1)CC(Cc1cc(N3CCCC3)cnn1)CCO2 (stereo unspecified) turned out to be 2.31

Sample COc1ccc(-c2nnc(SC(C)C(=O)NC(C)(C)C)[nH]2)c(OC)c1 (stereo unspecified) ; cytotoxicity at 70.5 h observed: 32.5

Recorded result, "O=S(=O)(c1cccs1)N1CC[C@H](O)[C@@H]1Cc1ccncc1" , cytotoxicity at 70.5 h: -1.15

The compound identified as "O=C(CSc1ccccc1)Nc1cnn(CC(=O)N2CCCO2)c1" registered its cytotoxicity at 70.5 h at -2.01

* * *

# methodSummary: Human HepG2 cell viability assay in 384 well format
# Format: toxicity, cell-based
# Parameters: dose 125 nL, time 70.5 hour; concentration not given beside the values
# testSettings: HepG2 cells, read-out: Inhibition
For each entry below, report its cytotoxicity at 70.5 h value.
Note: unit % is implicit; provide only the numeric part.

In plain terms, "c1cncc(OC[C@@]23CCC[C@@H]2CN(CC2CCOCC2)C3)c1" has a documented cytotoxicity at 70.5 h of -1.42

So, O=C1NCCN2CCN(C(=O)Nc3ccc(-c4ccccc4)cc3)CC12 (stereo unspecified) ? Its cytotoxicity at 70.5 h was 10.4

GET /value?item= CN1CCN(c2ccc(F)cc2NC(=O)NCC[S+](C)[O-])CC1 (stereo unspecified) &field=cytotoxicity at 70.5 h returns -2.15

get_value(item= CC(C)CN1CC2(CCN(C(=O)C3CNC(=O)N3)CC2)CC1=O (stereo unspecified) , readout=cytotoxicity at 70.5 h) returns -9.7

Measured cytotoxicity at 70.5 h, "NC(=O)c1cc(C2CC2)nc2ccc(F)cc12" : 2.17

# cytotoxicity at 70.5 h of Nc1nc(CN2CCCCC2Cn2cncn2)nc2ccccc12 (stereo unspecified) = 0.228

Entry "Cc1nc(CN2CCCN(CC(=O)N(C)CCC#N)CC2)no1" ; cytotoxicity at 70.5 h = -9.21

response.value for CC(C(=O)N(C)Cc1nnc2n1CCC2)S(C)(=O)=O (stereo unspecified) (field: cytotoxicity at 70.5 h) = -1.23

// recorded cytotoxicity at 70.5 h for "Cc1ccc(CN2CC[C@@H](O)[C@@H]2Cc2cnn(C)c2)o1" : -10.4

Recorded result, "C1Cc2nc(CCNc3nc(C4CC4)nc4c3CCNCC4)sc2C1" , cytotoxicity at 70.5 h: -4.01

Entry CSC(C)CCN1CCC(n2cc(C3CCCCC3)nn2)CC1 (stereo unspecified) , cytotoxicity at 70.5 h reported as -1.37
